Tested on: Candida albicans
PROCEDURE TEXT: Antifungal activity against Candida albicans ATCC SC5314 assessed as inhibition of visible microbial growth by NCCLS protocol based method
Format: functional
The reader will find reported MIC values listed item by item below.
Your answer is read as µg/mL, so omit the unit and give the number.

1) CC[C@H](C)[C@@H](Cn1ccnc1)NC(=O)c1ccc(-c2ccccc2)cc1OC; 0.25
2) CC[C@H](C)[C@@H](Cn1cncn1)NC(=O)c1ccc(-c2ccccc2)cc1F; 0.125
3) OC(Cn1cncn1)(Cn1cncn1)c1ccc(F)cc1F [FLUCONAZOLE]; 0.5

In: Given the entry CC[C@H](C)[C@@H](Cn1ccnc1)NC(=O)c1ccc(-c2ccc(F)cc2)cc1 , report its measured MIC.
Out: 0.125

In: Could you do the same for CC[C@H](C)[C@@H](Cn1ccnc1)NC(=O)c1ccc(-c2ccccc2)cc1C , please?
Out: 0.25

---

Test system: Aspergillus fumigatus
PROCEDURE TEXT: Antifungal activity against Aspergillus fumigatus CGMCC 3.7795 assessed as inhibition of visible microbial growth by NCCLS protocol based method
Format: functional
READOUT TYPE: MIC

In: Query MIC on Aspergillus fumigatus for O=C(N[C@@H](Cc1ccccc1)Cn1ccnc1)c1ccc(-c2ccccc2)cc1
Out: > 64 µg/mL

In: Could you do the same for CC[C@@H](Cn1ccnc1)NC(=O)c1ccc(-c2ccccc2)cc1 , please?
Out: 4 µg/mL

In: Could you do the same for CC(C)C[C@@H](Cn1ccnc1)NC(=O)c1ccc(-c2ccccc2)c(F)c1 , please?
Out: > 64 µg/mL

In: Could you do the same for CCC[C@@H](Cn1ccnc1)NC(=O)c1ccc(-c2ccccc2)cc1 , please?
Out: 4 µg/mL

In: Could you do the same for CC[C@H](C)[C@@H](Cn1ccnc1)NC(=O)c1ccc(-c2ccccc2)cc1OC , please?
Out: > 64 µg/mL

In: Could you do the same for C[C@@H](Cn1ccnc1)NC(=O)c1ccc(-c2ccccc2)cc1 , please?
Out: 1 µg/mL

In: Could you do the same for CCC(C)n1ncn(-c2ccc(N3CCN(c4ccc(OCC5COC(Cn6cncn6)(c6ccc(Cl)cc6Cl)O5)cc4)CC3)cc2)c1=O (centres undefined) , please?
Out: < 0.125 µg/mL

In: Could you do the same for CC(C)C[C@@H](Cn1ccnc1)NC(=O)c1ccc(-c2ccccc2)cc1 , please?
Out: > 64 µg/mL

In: Could you do the same for CC[C@H](C)[C@@H](Cn1ccnc1)NC(=O)c1ccc(-c2ccccc2)cc1Cl , please?
Out: > 64 µg/mL

---

Test system: Candida albicans
PROCEDURE TEXT: Antifungal activity against Candida albicans ATCC SC5314 assessed as inhibition of visible microbial growth by NCCLS protocol based method
Type: functional
The reader will find reported MIC values listed item by item below.
Your answer is read as µg/mL, so omit the unit and give the number.

1. CC[C@H](C)[C@@H](Cn1ccnc1)NC(=O)c1ccc(-c2ccccc2)c(Cl)c1; 0.5

Attention now turns to another entry.
In: Query MIC on Candida albicans for CC[C@H](C)[C@@H](Cn1ccnc1)NC(=O)c1ccc(-c2ccccc2)cc1Cl
Out: 0.06

---

PROCEDURE TEXT: Stability in human plasma assessed as parent compound remaining at 100 uM after 60 mins LC/MS/MS analysis relative to control
Assay type: ADME, cell-free
APPLIED CONDITIONS: read-out: Stability
READOUT TYPE: remaining at 1 h, 100 µM (%)
Your answer is read as %, so omit the unit and give the number.

1) CC[C@H](C)[C@@H](Cn1ccnc1)NC(=O)c1ccc(-c2ccccc2)cc1F; 113

Attention now turns to another entry.
In: Given the entry CC[C@H](C)[C@@H](Cn1ccnc1)NC(=O)c1ccc(-c2ccccc2F)cc1F , report its measured remaining at 1 h, 100 µM.
Out: 114

---

PROCEDURE TEXT: Cytotoxicity in human A549 cells assessed as reduction in cell viability at 10 uM/L incubated for 24 hrs by MTT assay relative to control
Type: cell-based
APPLIED CONDITIONS: read-out: INH
READOUT TYPE: cytotoxicity at 24 h, 10 µM (%)
Your answer is read as %, so omit the unit and give the number.

Sample answers from the record:
1. CC[C@H](C)[C@@H](Cn1ccnc1)NC(=O)c1ccc(-c2ccccc2F)cc1F; 8.3
2. CC[C@H](C)[C@@H](Cn1ccnc1)NC(=O)c1ccc(-c2ccccc2)cc1F; 3.1

Attention now turns to another entry.
In: Given the entry C[C@@H](c1ncncc1F)[C@](O)(Cn1cncn1)c1ccc(F)cc1F , report its measured cytotoxicity at 24 h, 10 µM.
Out: 32

---

Tested on: Candida albicans
PROCEDURE TEXT: Antifungal activity against Candida albicans ATCC SC5314 assessed as inhibition of visible microbial growth by NCCLS protocol based method
Assay type: functional
The reader will find reported MIC values listed item by item below.

1) O=C(N[C@@H](Cc1ccccc1)Cn1ccnc1)c1ccc(-c2ccccc2)cc1; < 0.03 µg/mL
2) CC(C)[C@@H](Cn1ccnc1)NC(=O)c1ccc(-c2ccccc2)cc1; < 0.03 µg/mL

Attention now turns to another entry.
In: Query MIC on Candida albicans for CC(C)[C@@H](Cn1ccnc1)NC(=O)c1ccc(-c2ccc(F)cc2)cc1
Out: 0.25 µg/mL

---

PROCEDURE TEXT: Cytotoxicity in human A549 cells assessed as reduction in cell viability at 50 uM/L incubated for 24 hrs by MTT assay relative to control
Type: cell-based
APPLIED CONDITIONS: read-out: INH
The reader will find reported cytotoxicity at 24 h, 50 µM values listed item by item below.
Your answer is read as %, so omit the unit and give the number.

In: Given the entry C[C@@H](c1ncncc1F)[C@](O)(Cn1cncn1)c1ccc(F)cc1F , report its measured cytotoxicity at 24 h, 50 µM.
Out: 36.7

In: Could you do the same for CC[C@H](C)[C@@H](Cn1ccnc1)NC(=O)c1ccc(-c2ccccc2)cc1F , please?
Out: 14

In: Could you do the same for CC[C@H](C)[C@@H](Cn1ccnc1)NC(=O)c1ccc(-c2ccccc2F)cc1F , please?
Out: 13.9

---

PROCEDURE TEXT: Cytotoxicity in human A549 cells assessed as reduction in cell viability at 0.40 uM/L incubated for 24 hrs by MTT assay relative to control
Type: cell-based
APPLIED CONDITIONS: read-out: INH
READOUT TYPE: cytotoxicity at 24 h, 0.4 µM
Provide the measurement as a number trailed by its unit.

Sample answers from the record:
1. CC[C@H](C)[C@@H](Cn1ccnc1)NC(=O)c1ccc(-c2ccccc2F)cc1F; 6.6%
2. C[C@@H](c1ncncc1F)[C@](O)(Cn1cncn1)c1ccc(F)cc1F; 20.3%

In: Given the entry CC[C@H](C)[C@@H](Cn1ccnc1)NC(=O)c1ccc(-c2ccccc2)cc1F , report its measured cytotoxicity at 24 h, 0.4 µM.
Out: 1%

---

System: Aspergillus fumigatus
PROCEDURE TEXT: Antifungal activity against Aspergillus fumigatus CGMCC 3.7795 assessed as inhibition of visible microbial growth by NCCLS protocol based method
Assay type: functional
READOUT TYPE: MIC (µg/mL)
Your answer is read as µg/mL, so omit the unit and give the number.

Sample answers from the record:
1. CC[C@H](C)[C@@H](Cn1ccnc1)NC(=O)c1ccc(-c2cccc(F)c2)cc1F; 4
2. CC(C)C[C@@H](Cn1ccnc1)NC(=O)c1ccc(-c2ccccc2)cc1F; 2
3. CC[C@H](C)[C@@H](Cn1ccnc1)NC(=O)c1ccc(-c2ccccc2F)cc1F; 2
4. CC(C)[C@@H](Cn1ccnc1)NC(=O)c1ccc(-c2ccccc2)cc1F; 1

In: Given the entry CC(C)[C@@H](Cn1ccnc1)NC(=O)c1ccc(-c2ccc(F)cc2)cc1 , report its measured MIC.
Out: 32

In: Could you do the same for CC[C@H](C)[C@@H](Cn1ccnc1)NC(=O)c1ccc(-c2ccc(F)cc2)cc1F , please?
Out: 8

---

System: Candida albicans
PROCEDURE TEXT: Antifungal activity against Candida albicans ATCC SC5314 assessed as inhibition of visible microbial growth by NCCLS protocol based method
Assay type: functional
The reader will find reported MIC values listed item by item below.

Sample answers from the record:
1) O=C(N[C@@H](Cc1ccccc1)Cn1ccnc1)c1ccc(-c2ccccc2)c(F)c1; < 0.03 µg/mL
2) CC[C@@H](Cn1ccnc1)NC(=O)c1ccc(-c2ccccc2)cc1; < 0.06 µg/mL

In: Given the entry CC[C@H](C)[C@@H](Cn1ccnc1)NC(=O)c1ccc(-c2ccccc2)cc1F , report its measured MIC.
Out: < 0.03 µg/mL

In: Could you do the same for CC(C)OC(=O)C(Cn1ccnc1)NC(=O)c1ccc(-c2ccccc2)cc1 (stereo not given) , please?
Out: < 0.03 µg/mL

In: Could you do the same for CC(C)[C@@H](Cn1ccnc1)NC(=O)c1ccc(-c2ccccc2)cc1F , please?
Out: < 0.03 µg/mL
